Consider the following molecules and their measured min SC luc readings.
- Tested on: CMV-luc
- experimental-protocol: Secondary assays, Bright-Glo luciferase in SC cells
- Format: cell-based
- assay-setup: minimum CMV-luc luciferase in SC cells over 12 doses

molecule	min SC luc, %
O=c1[nH]c2ccc(Cl)cc2c(N[C@@H]2CN3CCC2CC3)c1-c1nc2ccccc2[nH]1 [CHIR-124]	69.4
COc1c(C)cnc(Cn2cnc3c(Cl)nc(N)nc32)c1C [CNF-2024 (BIIB021)]	68.17
CC1(C)CC(=O)c2c(C(F)(F)F)nn(-c3ccc(C(N)=O)c(N[C@H]4CC[C@H](OC(=O)CN)CC4)c3)c2C1 [SNX-5422]	69.78
NC(=O)Nc1cc(-c2cccc(F)c2)sc1C(=O)N[C@H]1CCCNC1 [AZD-7762]	70.35
CN[C@H]1CN(c2ccc3c(=O)c(C(=O)O)cn(-c4nccs4)c3n2)C[C@@H]1OC [Vosaroxin]	64.01
Clc1ccc(C[n+]2cc(-c3ccccc3)n3c2CCCCC3)c(Cl)c1.[Br-] [MLS000420216]	72.16
C[C@H]1CCC/C=C/[C@@H]2C[C@H](O)C[C@H]2[C@H](O)/C=C/C(=O)O1 [Brefeldin A]	84.38
Nc1ncnc2c1c(-c1cnc3[nH]ccc3c1)nn2C1CCCC1 [PP121]	78.1

* * *

- experimental-protocol: Secondary assays, CellTiter-Fluor viability;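 note: minimum viability across the dose series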
- assay-setup: human
Consider the following molecules and their measured viability at 24 h readings.
property-name: viability at 24 h (%)

molecule	property-name	value-reported
N[C@@H](Cc1ccc(N(CCCl)CCCl)cc1)C(=O)O [Melphalan]	viability at 24 h	89.3
CC(C)c1cc(C(=O)N2Cc3ccc(CN4CCN(C)CC4)cc3C2)c(O)cc1O [Onalespib (AT-13387AU)]	viability at 24 h	90.6
COc1c(C)cnc(Cn2cnc3c(Cl)nc(N)nc32)c1C [CNF-2024 (BIIB021)]	viability at 24 h	91.8
S=C(NCc1ccc2c(c1)OCO2)N1CCN(c2ncnc3c2oc2ccccc23)CC1 [Amuvatinib]	viability at 24 h	87.7

* * *

Consider the following compounds and their measured viability at 24 h readings.
- experimental-protocol: in vitro
- assay-setup: human

smiles-notation	viability at 24 h, %
O=C1NC(=O)/C(=C/c2ccc3nccc(-c4ccncc4)c3c2)S1	75.5
O=c1[nH]c(=O)n([C@H]2C[C@H](O)[C@@H](CO)O2)cc1F	97.9
C=CCn1c(=O)c2cnc(Nc3ccc(N4CCN(C)CC4)cc3)nc2n1-c1cccc(C(C)(C)O)n1	77.9
C[C@@]12OC(=O)[C@]1([C@@H](O)[C@@H]1C=CCCC1)NC(=O)[C@@H]2CCCl	76
CC1(C)CC(=O)c2c(C(F)(F)F)nn(-c3ccc(C(N)=O)c(N[C@H]4CC[C@H](OC(=O)CN)CC4)c3)c2C1	87.1
CC1(C)CC(=O)c2c(C(F)(F)F)nn(-c3ccc(C(N)=O)c(N[C@H]4CC[C@H](O)CC4)c3)c2C1	83.3
NC(=O)Nc1cc(-c2cccc(F)c2)sc1C(=O)N[C@H]1CCCNC1	78.1
